assay: Human HepG2 cell viability assay in 384 well format; format: toxicity, cell-based; set-up: dose 125 nL, time 70.5 hour; concentration not given beside the values; conditions: HepG2 cells, read-out: Inhibition
Task for the reader: assign each of the following compounds its reported cytotoxicity at 70.5 h.
Give bare numbers, in %.

Check out these entries, answers already filled in.
Cc1nc(C)n(CC2CCCN2CC(=O)Nc2cccnc2)n1 (stereo unspecified) :: -0.954
Fc1ccc(C(NCc2nnc(C3CC3)o2)C2CCC2)cc1 (stereo unspecified) :: -4.6
Cc1ccc(C(=O)N2CCc3ncnc(C)c3CC2)cn1 :: -4.87
COc1ccc(CSc2nnc(N)n2C2CC2)cc1F :: 24.8
O=C(NCc1nnc2n1CCC2)N(Cc1ccc(F)cc1)C1CC1 :: -8.55
CCCNC(=O)Nc1ncc(-c2cccnc2)s1 :: -9.71

For each of the compounds below, note its cytotoxicity at 70.5 h.
1. CCCC(C)CS(=O)(=O)NCc1cccnc1N(C)C (stereo unspecified)
2. CN(C)C(=O)CC1CC2(CCN(CC3CC3)CC2)Oc2ccccc21 (stereo unspecified)
3. CN1CCC2(CC1)Cc1ccccc1CN(C(=O)CN)C2
4. COCC(=O)N1CCN(Cc2csc(-c3ncccn3)n2)CC1
5. COc1cc(C)sc1C(=O)N1CCCCC1c1ccccn1 (stereo unspecified)

a:
1. -1.93
2. -3.69
3. 24.5
4. -2.92
5. -16.5

For every listed record, write down its cytotoxicity at 70.5 h.
1. O=S(=O)(Cc1ccc(F)c(Cl)c1)NCCOc1cccnc1
2. CCc1ccc(OCC(O)CN2CCN(CC)CC2)cc1 (stereo unspecified)
3. Cc1cc(CNC(C)Cn2cncn2)ccc1Br (stereo unspecified)
4. COC1CCN(c2ccc(NC(=O)C3CC3)cc2C(F)(F)F)CC1
5. CC(C)(C)CC(=O)N1CCCC2(CC(C(=O)Nc3ccccc3)=NO2)C1 (stereo unspecified)
6. FC(F)(F)c1cc(C2CCCN(c3ncccn3)C2)n2ccnc2n1 (stereo unspecified)

a:
[3.53, 20.5, -87.4, -4.49, -8.03, -2.5]

Each compound below has a recorded value; state its cytotoxicity at 70.5 h.
1. COc1ccc(-n2cccn2)c(CN2CCC3(CCCNC3)C2)c1 (stereo unspecified)
2. CCOc1ccc(Cl)c(C(=O)NCCC(=O)Nc2ccncc2)n1
3. CCc1cc(C(=O)N2CCCC(c3cc(=O)nc4n3CCC4)C2)no1 (stereo unspecified)
4. COc1cccc([C@@H]2CCN(Cc3ccc4ccccc4n3)C[C@H]2O)c1

a:
-7.03
0.642
-6.36
-8.06
